All values here come from PubChem BioAssay AID2060895.

- Test system: PDC 899932-113-R3-J6 complex spheroid viability;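 also: spheroids exposed to agents for seven days before readout; 100% = DMSO vehicle control wells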
- assay: Anticancer human tumor 899932-113-R3-J6-PDC patient-derived melanoma cell line growth inhibition [RAS]
- applied_conditions: second compound 0.316 µM; first compound 0.1 µM; active compounds read low
measurement_kind: viability, T/C (%)
Record the value in %, omitting the unit from your answer.

Recorded viability, T/C, per entry:
CCC(CC)c1cc(NC2CCC(N)C2)n2nccc2n1 (stereo not given) + C=CC(=O)N1CCN(c2nc(OCC3CCCN3C)nc3c(F)c(-c4nc(N)cc(C)c4C(F)(F)F)c(Cl)cc23)C(C)C1	99.3
CCN1CCN(Cc2ccc(Nc3ncc(F)c(-c4cc(F)c5nc(C)n(C(C)C)c5c4)n3)nc2)CC1 + C=CC(=O)N1CCN(c2nc(OCC3CCCN3C)nc3c(F)c(-c4nc(N)cc(C)c4C(F)(F)F)c(Cl)cc23)C(C)C1	81

Problem: State viability, T/C on PDC 899932-113-R3-J6 complex spheroid viability. Entry: CC1(O)CCCC1n1c(=O)c(C(F)F)cc2cnc(NC3CCN(S(C)(=O)=O)CC3)nc21 (stereo not given) + C=CC(=O)N1CCN(c2nc(OCC3CCCN3C)nc3c(F)c(-c4nc(N)cc(C)c4C(F)(F)F)c(Cl)cc23)C(C)C1
Result: 80.1

Problem: State viability, T/C on PDC 899932-113-R3-J6 complex spheroid viability. Entry: Nc1ccn(C2OC(CO)C(O)C2(F)F)c(=O)n1 (stereo not given) + C#Cc1c(F)ccc2cc(O)cc(-c3ncc4c(N5CC6CCC(C5)N6)nc(OCC56CCCN5CC(F)C6)nc4c3F)c12
Result: 17.9

Problem: State viability, T/C on PDC 899932-113-R3-J6 complex spheroid viability. Entry: Cc1nc(N2CCC3(CC2)COC(C)C3N)c(CO)nc1Sc1ccnc(N)c1Cl (stereo not given) + C=CC(=O)N1CCN(c2nc(OCC3CCCN3C)nc3c(F)c(-c4nc(N)cc(C)c4C(F)(F)F)c(Cl)cc23)C(C)C1
Result: 111

Problem: State viability, T/C on PDC 899932-113-R3-J6 complex spheroid viability. Entry: CC(C)NCC(C(=O)N1CCN(c2ncnc3c2C(C)CC3O)CC1)c1ccc(Cl)cc1 (stereo not given) + C=CC(=O)N1CCN(c2nc(OCC3CCCN3C)nc3c(F)c(-c4nc(N)cc(C)c4C(F)(F)F)c(Cl)cc23)C(C)C1
Result: 105

Problem: State viability, T/C on PDC 899932-113-R3-J6 complex spheroid viability. Entry: C[C@@H](NC(=O)c1ncnc(N)c1Cl)c1ncc(C(=O)Nc2cc(C(F)(F)F)c(Cl)cn2)s1 + C#Cc1c(F)ccc2cc(O)cc(-c3ncc4c(N5CC6CCC(C5)N6)nc(OCC56CCCN5CC(F)C6)nc4c3F)c12
Result: 123
